FYI, the data here is from patent US6310095A.

Target: protein farnesyltransferase (Rattus norvegicus, UniProt Q02293+Q04631)
Construct: Rat brain protein farnesyltransferase activity is measured; from tissue; host or cells: rat brain; purified according to Reiss et al., Cell 62:81-88 (1990), steps one through three
Test: in vitro inhibition of protein farnesyltransferase (scintillation proximity assay, biotin-K Ras B fragment)
Type: biochemical
Settings: at 1 × 10^-5 M
measure: inhibition at 10 µM (%)
Express the result in % but write the number alone.

Reference set, count: 5
COc1ccc(Br)c(C(=O)Nc2ccc(C(=O)N[C@@H](CCSC)C(=O)O)c(-c3ccccc3)c2)c1: 40
CSCC[C@H](NC(=O)c1ccc(CNc2ccc(Oc3ccccc3)cc2)cc1-c1ccccc1)C(=O)O: 64
CSCC[C@H](NC(=O)c1ccc(CNc2cccc(OC(F)(F)F)c2)cc1-c1ccccc1)C(=O)O: 73
CSCC[C@H](NC(=O)c1ccc(CNc2cc(C(=O)O)cc(C(=O)O)c2)cc1-c1ccccc1)C(=O)O: 45
CSCC[C@H](NC(=O)c1ccc(CNc2cccc(CCC(=O)O)c2)cc1-c1ccccc1)C(=O)O: 55

Field request: inhibition at 10 µM | item: CSCC[C@H](NC(=O)c1ccc(CNc2ccc3c(c2)Cc2ccccc2-3)cc1-c1ccccc1)C(=O)O
53

Field request: inhibition at 10 µM | item: CSCC[C@H](NC(=O)c1ccc(NC(=O)CCN)cc1-c1ccccc1)C(=O)O
44

====

Quick reference: inhibition at 0.01 µM of the listed items.
Biological target: protein farnesyltransferase (Rattus norvegicus, UniProt Q02293+Q04631)
Construct: Rat brain protein farnesyltransferase activity is measured; from tissue; host or cells: rat brain; purified according to Reiss et al., Cell 62:81-88 (1990), steps one through three
Test: in vitro inhibition of protein farnesyltransferase (scintillation proximity assay, biotin-K Ras B fragment)
Format: biochemical
Conditions: at 1 × 10^-8 M; read-out: % inhibition of farnesyltransferase
Structures can show the parent of a compound that is named as a salt.
Express the result in % but write the number alone.

Reference set, count: 5
CSCC[C@H](NC(=O)c1ccc(CN(CCC2CCCCC2)C(=O)OC(C)(C)C)cc1-c1ccccc1C)C(=O)O [Example 763, lithium salt]: 92
CSCC[C@H](NC(=O)c1ccc(CN(CCC2CCCCC2)Cc2cncs2)cc1-c1ccccc1C)C(=O)O: 95
CCCCN(CCc1ccccc1)Cc1ccc(C(=O)N[C@@H](CCSC)C(=O)O)c(-c2ccccc2C)c1: 84
CSCC[C@H](NC(=O)c1ccc(CN(Cc2ccccc2)c2cncnc2)cc1-c1ccccc1C)C(=O)O [Example 836, lithium salt]: 95
CSCC[C@H](NC(=O)c1ccc(CN(Cc2ccccc2)c2ccc(Cl)cc2)cc1-c1ccccc1C)C(=O)O [Example 848, lithium salt]: 87

Field request: inhibition at 0.01 µM | item: CSCC[C@H](NC(=O)c1ccc(CN(Cc2ccccc2)c2cccc(C(C)=O)c2)cc1-c1ccccc1C)C(=O)O [Example 845, lithium salt]
85

Field request: inhibition at 0.01 µM | item: COc1cccc(CN(Cc2ccc(C(=O)N[C@@H](CCSC)C(=O)O)c(-c3ccccc3C)c2)c2ccccc2)c1 [Example 779, lithium salt]
70

====

Molecular target: protein farnesyltransferase (Rattus norvegicus, UniProt Q02293+Q04631)
Construct: Rat brain protein farnesyltransferase activity is measured; from tissue; host or cells: rat brain; purified according to Reiss et al., Cell 62:81-88 (1990), steps one through three
Experiment: in vitro inhibition of protein farnesyltransferase (scintillation proximity assay, biotin-K Ras B fragment)
Type: biochemical
Settings: at 1 × 10^-6 M; read-out: % inhibition of farnesyltransferase
Where a name gives a salt, the structure may show the parent alone.
Quick reference: inhibition at 1 µM of the listed items.
Express the result in % but write the number alone.

Reference set, count: 3
CSCC[C@H](NC(=O)c1ccc(CN[C@H](/C=C\CC(C)C)CC2CCCCC2)cc1-c1ccccc1)C(=O)O: 82
CSCC[C@H](NC(=O)c1ccc(CNCCN2CCCC2)cc1-c1ccccc1)C(=O)O: 34
CSCC[C@H](NC(=O)c1ccc(CN(CCc2ccccc2)Cc2ccccc2)cc1-c1ccccc1C)C(=O)O [Example 513, lithium salt]: 96

Could you now look at the following molecule, please?
Find the measured inhibition at 1 µM: item CSCC[C@H](NC(=O)c1ccc(NC(=O)Cc2nccs2)cc1-c1ccccc1)C(=O)O , target or system protein farnesyltransferase (Rattus norvegicus, UniProt Q02293+Q04631).
18

====

Quick reference: inhibition at 0.1 µM of the listed items.
Target: protein farnesyltransferase (Rattus norvegicus, UniProt Q02293+Q04631)
Construct: Rat brain protein farnesyltransferase activity is measured; from tissue; host or cells: rat brain; purified according to Reiss et al., Cell 62:81-88 (1990), steps one through three
Test: in vitro inhibition of protein farnesyltransferase (scintillation proximity assay, biotin-K Ras B fragment)
Format: biochemical
Details: at 1 × 10^-7 M; read-out: % inhibition of farnesyltransferase
Structures can show the parent of a compound that is named as a salt.
Express the result in % but write the number alone.

Reference set, count: 3
CCCCN(CCCC)C(=O)CN(C)Cc1ccc(C(=O)N[C@@H](CCSC)C(=O)O)c(-c2ccccc2C)c1: 89
CSCC[C@H](NC(=O)c1ccc(CN[C@H](/C=C\CC(C)C)CC2CCCCC2)cc1-c1ccccc1C)C(=O)O [Example 526, lithium salt]: 96
CSCC[C@H](NC(=O)c1ccc(NC(=O)CN)cc1-c1ccccc1)C(=O)O: 56

Could you now look at the following compound, please?
Find the measured inhibition at 0.1 µM: item CSCC[C@H](NC(=O)c1ccc(CN[C@H](CSC(C)(C)C)CC2CCCCC2)cc1-c1ccccc1C)C(=O)O [Example 622, Lithium Salt] , target or system protein farnesyltransferase (Rattus norvegicus, UniProt Q02293+Q04631).
95

====

Biological target: protein farnesyltransferase (Rattus norvegicus, UniProt Q02293+Q04631)
Construct: Rat brain protein farnesyltransferase activity is measured; from tissue; host or cells: rat brain; purified according to Reiss et al., Cell 62:81-88 (1990), steps one through three
Assay: in vitro inhibition of protein farnesyltransferase (scintillation proximity assay, biotin-K Ras B fragment)
Format: biochemical
Settings: at 1 × 10^-6 M; read-out: % inhibition of farnesyltransferase
Procedure: The ability of the compounds of the invention to inhibit protein farnesyltransferase or protein geranylgeranyltransferase can be measured according to the method of Moores, et al., J. Biol. Chem. 266: 14603 (1991) or the method of Vogt, et al., J. Biol. Chem. 270:660-664 (1995). […] In addition, in vitro inhibition of protein farnesyltransferase may be measured by the following procedure. […] The % inhibition of protein farnesyltransferase was determined for representative compounds of the invention.
Counter-ions that a name gives are not always drawn.
Values of inhibition at 1 µM greater than or equal to 80% map to Condition met; values below map to Condition not met.

# count of solved cases: 5
CSCC[C@H](NC(=O)c1ccc(CNc2ccc(CCO)cc2)cc1-c1ccccc1)C(=O)O: Condition not met
CSCC[C@H](NC(=O)c1ccc(CN(CCc2ccccc2)C(C)C)cc1-c1ccccc1C)C(=O)O [Example 835, lithium salt]: Condition met
CSCC[C@H](NC(=O)c1ccc(NC(=O)Cc2ccc(C)cc2)cc1-c1ccccc1C)C(=O)O [Example 541, lithium salt]: Condition not met
CCc1nnc(NCc2ccc(C(=O)N[C@@H](CCSC)C(=O)O)c(-c3ccccc3C)c2)s1: Condition met
CSCC[C@H](NC(=O)c1ccc(CNC(CO)Cc2ccc(Cl)cc2)cc1-c1ccccc1)C(=O)O (stereo partly shown): Condition not met

Is inhibition at 1 µM for CSCC[C@H](NC(=O)c1ccc(NC(=O)C2CCC(=O)N2)cc1-c1ccccc1)C(=O)O (stereo partly shown) at or above 80%?
Condition not met

====

Molecular target: protein farnesyltransferase (Rattus norvegicus, UniProt Q02293+Q04631)
Construct: Rat brain protein farnesyltransferase activity is measured; from tissue; host or cells: rat brain; purified according to Reiss et al., Cell 62:81-88 (1990), steps one through three
Assay: in vitro inhibition of protein farnesyltransferase (scintillation proximity assay, biotin-K Ras B fragment)
Assay type: biochemical
Conditions: at 1 × 10^-6 M
measure: % inhibition of farnesyltransferase (%)
Express the result in % but write the number alone.

Reference set, count: 3
CSCC[C@H](NC(=O)c1ccc(CN(C(C)C)C2(CC3CCCCC3)CCC2)cc1-c1ccccc1C)C(=O)O [Example 332]: 26
CSCC[C@H](NC(=O)c1ccc(S(=O)(=O)NCCC2CCCCC2)cc1-c1ccccc1C)C(=O)O [Example 772]: 79
CSCC[C@H](NC(=O)c1ccc(COCc2ccccc2)cc1-c1ccccc1)C(=O)O [Example 575]: 70

Find the measured % inhibition of farnesyltransferase: item CSCC[C@H](NC(=O)c1ccc(C=CCCCc2ccccc2)cc1-c1ccccc1C)C(=O)O [Example 480] , target or system protein farnesyltransferase (Rattus norvegicus, UniProt Q02293+Q04631).
87

Find the measured % inhibition of farnesyltransferase: item CSCC[C@H](NC(=O)c1ccc(CS(=O)(=O)Cc2ccccc2)cc1-c1ccccc1C)C(=O)O [Example 555] , target or system protein farnesyltransferase (Rattus norvegicus, UniProt Q02293+Q04631).
85

Find the measured % inhibition of farnesyltransferase: item CSCC[C@H](NC(=O)c1ccc(/C=C/c2ccc3ccccc3c2)cc1-c1ccccc1C)C(=O)O [Example 465] , target or system protein farnesyltransferase (Rattus norvegicus, UniProt Q02293+Q04631).
92

Find the measured % inhibition of farnesyltransferase: item CSCC[C@H](NC(=O)c1ccc(COC2CCN(C(=O)OC(C)(C)C)CC2)cc1-c1ccccc1C)C(=O)[O-].[Li+] [Example 808] , target or system protein farnesyltransferase (Rattus norvegicus, UniProt Q02293+Q04631).
88
